Where do the numbers come from? From patent US20090118178A1.

molecular target: human Y4 receptor (human, UniProt P50391 1-375); test: cell-based or functional assay
Sequence (P50391 whole entry): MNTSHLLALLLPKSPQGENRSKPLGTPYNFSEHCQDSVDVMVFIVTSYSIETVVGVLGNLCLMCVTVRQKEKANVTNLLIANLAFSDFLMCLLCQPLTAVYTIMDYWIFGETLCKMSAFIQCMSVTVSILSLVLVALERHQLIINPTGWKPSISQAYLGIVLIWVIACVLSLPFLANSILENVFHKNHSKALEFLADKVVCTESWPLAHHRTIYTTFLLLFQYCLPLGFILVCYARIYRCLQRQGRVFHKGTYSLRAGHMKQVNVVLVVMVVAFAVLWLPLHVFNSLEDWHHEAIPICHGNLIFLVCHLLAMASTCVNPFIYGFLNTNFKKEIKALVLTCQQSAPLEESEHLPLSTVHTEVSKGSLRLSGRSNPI
Where no end group is shown, it is not given here.
Field: EC50, inositol phosphate turnover in transfected COS-7 cells (hY4 potency assay). Provide a value for each of the binders that follow.
Number in nM, nothing else.

What the record says about PLEPVYPGDNATPEQMAQYAADLRRYINQLTRPRY-NH2 [[Gln30]PP2-36] : EC50, inositol phosphate turnover in transfected COS-7 cells (hY4 potency assay) is 0.99

What the record says about PLEPVYPGENATPEQLAQYAADLRRYINTLTRPRY-NH2 [[Glu10, Leu17, Thr30]PP2-36] : EC50, inositol phosphate turnover in transfected COS-7 cells (hY4 potency assay) is 1.07

What the record says about PLEPVYPGENATPEQMAQYAADLRRYINMLTRPRY-NH2 [[Glu10]PP2-36] : EC50, inositol phosphate turnover in transfected COS-7 cells (hY4 potency assay) is 0.91

What the record says about PLEPVYPGDNATPEQMAQYAADLRRYINTLTRPRY-NH2 [[Thr30]PP2-36] : EC50, inositol phosphate turnover in transfected COS-7 cells (hY4 potency assay) is 1.07

What the record says about PLEPVYPGDNATPEQMAQYAADLRRYINALTRPRY-NH2 [[Ala30]PP2-36] : EC50, inositol phosphate turnover in transfected COS-7 cells (hY4 potency assay) is 1.04

What the record says about PLEPVYPGDNATPEQMAQYAADLRRYINNLTRPRY-NH2 [[Asn30]PP2-36] : EC50, inositol phosphate turnover in transfected COS-7 cells (hY4 potency assay) is 3.05
